- Target desc: T1, Rb^P D604G (human, UniProt P06400 380-788, D604G)
- T1 construct: also called variant 36
- T1 sequence (looked up): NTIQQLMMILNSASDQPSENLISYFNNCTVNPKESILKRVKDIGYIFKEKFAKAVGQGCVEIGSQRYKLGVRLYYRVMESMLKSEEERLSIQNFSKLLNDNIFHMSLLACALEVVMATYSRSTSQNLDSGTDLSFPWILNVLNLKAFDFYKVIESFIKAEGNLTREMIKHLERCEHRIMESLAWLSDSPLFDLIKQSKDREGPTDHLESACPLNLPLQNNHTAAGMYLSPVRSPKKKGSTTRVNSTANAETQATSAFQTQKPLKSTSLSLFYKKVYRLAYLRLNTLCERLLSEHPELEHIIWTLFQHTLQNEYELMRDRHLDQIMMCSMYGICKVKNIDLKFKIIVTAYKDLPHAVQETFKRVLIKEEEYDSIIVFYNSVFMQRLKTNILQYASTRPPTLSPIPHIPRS
- Test: fluorescence polarisation; 37 °C, after the 25 °C reading ramped over 7 min to 37 °C and 2 min incubation; unlabeled Rb^P against 1.5 nM TMR-E2F1^TD or 7.5 nM TMR-E7^LxCxE; 25 mM Tris pH 8.0, 200 mM NaCl, 1 mM DTT, 0.1% Tween-20; apparent Kd
- Condition summary: both partners purified
No end group written: not given here. TMR = tetramethyl rhodamine dye
Measured attribute: Kd
Answer format: value, then unit.

Would you mind telling me what Kd value was observed for DLYCYEQLN (also: TMR label, position not given here, source: synthetic peptide, bought: GenScript) [TMR-E7^LxCxE, LxCxE peptide of the E7 oncoprotein from HPV] ? 26 nM

{TMR}-GEGIRDLFDCDFGDLTPLD (also called E2F^TD; source: synthetic peptide, bought: GenScript) [TMR-E2F1^TD, peptide of the E2F1 transactivation domain] , same question. 50 nM
